assay: biodistribution in A431-CCK2R/A431-mock xenografted BALB/c nude mice; assay type: in vivo; details: female, athymic BALB/c nude, mouse, tumor/stomach, iv, 20 pmol, total radioactivity, 20 pmol, 12 h p.i.; read-out: tumor-to-stomach ratio
Non-standard residues stand in square brackets, D forms with d. Residues, ends and D or L forms follow the SMILES beside them. *: point of attachment. DOTA = O=C(O)CN1CCN(CC(=O)O)CCN(CC(=O)*)CCN(CC(=O)O)CC1; 1Nal = N[C@@H](Cc1cccc2ccccc12)C(=O)O; NMeNle = CCCC[C@H](NC)C(=O)O
assay.metric: tissue to tissue ratio at 12 h
Could you respond with only the numeric value?

molecule | tissue to tissue ratio at 12 h
CCCC[C@@H](C(=O)N[C@@H](CC(=O)O)C(=O)N[C@@H](Cc1cccc2ccccc12)C(N)=O)N(C)C(=O)[C@H](Cc1c[nH]c2ccccc12)NC(=O)CNC(=O)[C@@H]1CCCN1C(=O)[C@H](Cc1ccc(O)cc1)NC(=O)[C@@H](CCC(=O)O)NC(=O)CN1CCN(CC(=O)O)CCN(CC(=O)O)CCN(CC(=O)O)CC1 [[^177Lu]Lu-2, metal not drawn] ({DOTA}-[dE]YPGW[NMeNle]D[1Nal]-NH2) | 6.15

Now let's try a different one.
## Input I would be grateful if you could share the reported tissue to tissue ratio at 12 h for CCCC[C@@H](C(=O)N[C@@H](CC(=O)O)C(=O)N[C@@H](Cc1cccc2ccccc12)C(N)=O)N(C)C(=O)[C@H](Cc1c[nH]c2ccccc12)NC(=O)CNC(=O)[C@H](Cc1ccc(O)cc1)NC(=O)[C@@H]1CCCN1C(=O)[C@@H](CCC(=O)O)NC(=O)CN1CCN(CC(=O)O)CCN(CC(=O)O)CCN(CC(=O)O)CC1 [[^177Lu]Lu-1, metal not drawn] ({DOTA}-[dE]PYGW[NMeNle]D[1Nal]-NH2) .
## Output 5.54

Source listed as paper PMC7734625.
